Where do the numbers come from? From patent US9113629B2.

Test system: Key Grass and Sedge Weeds as well as Grass Crops
Assay: Post-emergent Test II herbicidal activity (Table 6)
Format: in vivo
Conditions: post-emergence, 336 h, DIGSA: crabgrass (Digitaria sanguinalis), 70 g ai/ha, read-out: Visual Growth Reduction (%) 14 Days After Application, DIGSA
Documented pest or weed control at 70 g/ha across a set of compounds

Consider the worked cases shown below.
Compound: COc1c(N)nc(-c2ccc(C(F)(F)F)c(F)c2F)nc1C(=O)O [Compound 76]
pest or weed control at 70 g/ha: 75 to 84%
//
Compound: Nc1c(F)c(-c2ccccc2)nc(C(=O)O)c1Cl [Compound 180]
pest or weed control at 70 g/ha: 0 to 29%
//
Compound: COC(=O)c1nc(-c2ccc(I)cc2)nc(N)c1OC [Compound 18]
pest or weed control at 70 g/ha: 0 to 29%
//
Compound: COC(=O)c1nc(-c2ccc(Br)cc2)nc(N)c1OC [Compound 97]
pest or weed control at 70 g/ha: 45 to 59%
//
Compound: COC(=O)c1nc(-c2ccc(Br)cc2F)c(F)c(N)c1Cl [Compound 52]
pest or weed control at 70 g/ha: 85 to 94%
//
Compound: COC(=O)c1nc(-c2ccc(C#N)c(F)c2)c(F)c(N)c1Cl [Compound 135]
pest or weed control at 70 g/ha: 60 to 74%
//
Compound: COC(=O)c1nc(-c2ccc(I)c(F)c2)c(F)c(N)c1Cl [Compound 132]
pest or weed control at 70 g/ha: 85 to 94%
//
Compound: COC(=O)c1nc(-c2ccc(C#N)cc2F)cc(N)c1Cl [Compound 16]
pest or weed control at 70 g/ha: 60 to 74%

Could you now consider this next compound?
### Prompt Please look up its pest or weed control at 70 g/ha: C#Cc1ccc(-c2nc(C(=O)OC)c(Cl)c(N)c2F)c(F)c1F [Compound 22]
### Response 0 to 29%
